The origin of these recorded values is a melting point compilation (Tetko et al.; mined from patent text by program, amines drawn as free bases though some values may be those of a salt).

We begin with a simple list: items and their reported melting point.

molecule: CC(C)(C)OC(=O)n1[nH]c2c(cnc3c([N+](=O)[O-])cccc32)c1=O
melting point: > 250 °C
--
molecule: S=C(NC(=S)c1c(Cl)cccc1Cl)Nc1ccc(Cl)c(Cl)c1
melting point: 168 to 170 °C
--
molecule: CN1CCc2c(-c3ccc(F)cc3)ccc([N+](=O)[O-])c2C1
melting point: 140 to 143 °C
--
molecule: Cc1cc(C)cc(COC2CCCCC2(N)c2ccccc2)c1 (stereo not given)
melting point: 75 to 78 °C
--
molecule: CCCCNC(=S)N1CCN(c2cnccn2)CC1
melting point: 97.5 to 98.5 °C
--
molecule: Cc1nc(N)n(N)c(=O)c1CCO
melting point: 126 to 135 °C
--
molecule: OC(=S)CCc1ccccc1
melting point: 60 °C
--
molecule: COc1cc(Br)c(/C=C/c2cc(/C=C/c3ccc4cc[nH]c4c3)[nH]n2)cc1O
melting point: 137 to 142 °C
--
molecule: COC(=O)c1cc(SC(F)(F)F)c(-c2ccc(Cl)cc2)[nH]1
melting point: 133 to 137 °C
--
molecule: CC(=O)C1C(=O)N(CC2CC2)C(=O)N(c2ccccc2)C1=O (stereo not given)
melting point: 91 to 95 °C
--
molecule: CC(=O)C(C)Nc1c(C)cc(C)c2nsnc12 (stereo not given)
melting point: 209 to 211 °C
--
molecule: COc1ccc(NC(=O)c2cccc(OC)c2N)cc1
melting point: 168 to 169 °C
--
molecule: O=C(Nc1ccc2nc(CN3CCCC3)ccc2c1)c1ccc(-c2ccc(Cl)cc2)cc1
melting point: 200 to 202 °C
--
molecule: O=c1nc(-c2ccccc2)c2cc3c(cc2[nH]1)OCO3
melting point: 351 to 354 °C
--
molecule: CC(C#Cc1ccc(OCc2ccccc2)cc1)N(O)C(N)=O (stereo not given)
melting point: 154 to 156 °C
